As shown below, each of these compounds has a reported IC50 value.
- experimental_details: Inhibition of rice alpha-glucosidase using p-nitrophenyl glycoside as substrate by spectrometric method
- Set-up: species or system Oryza sativa
Response body: numeric value in µM, unit text excluded.

The examples below pair each entry with its known result.
IN: GET /values?readout=IC50&item= OC[C@@H]1[C@@H](O)[C@H](O)[C@H]2C[C@@H](O)CN12
OUT: 234

IN: Note, next up: OC[C@@H]1[C@@H](O)[C@H](O)[C@H]2[C@H](O)C(F)(F)CN21
OUT: 48

IN: Thanks! And OC[C@@H]1[C@@H](O)[C@H](O)[C@H]2[C@H](O)[C@@H](F)CN21 ?
OUT: 771

// below: IC50 requested for another compound
IN: Item OC[C@@H]1[C@@H](O)[C@H](O)[C@H]2[C@@H](O)[C@@H](F)CN21 has what recorded IC50?
OUT: 350

----------
- experimental_target: Alpha-galactosidase (Coffea arabica)
- experimental_details: Inhibition of coffee bean alpha-galactosidase using p-nitrophenyl glycoside as substrate at 1000 uM by spectrometric method relative to control
Classify on inhibition using group 1: < 1%; group 2: ≥ 1% and < 4%; group 3: ≥ 4%

Answered cases to consult:
IN: Lab note: sort OC[C@@H]1[C@@H](O)[C@H](O)[C@H]2[C@H](O)C(F)(F)CN21 into the matching inhibition band.
OUT: group 2

IN: Input OC[C@@H]1[C@@H](O)[C@H](O)[C@H]2C[C@@H](F)CN12
OUT: group 3

IN: Another: OC[C@@H]1[C@@H](O)[C@H](O)[C@H]2C[C@H](O)CN12
OUT: group 3

IN: Cool, now OC[C@@H]1[C@@H](O)[C@H](O)[C@H]2[C@H](O)[C@@H](F)CN21
OUT: group 3

IN: What about this molecule? OC[C@@H]1[C@@H](O)[C@H](O)[C@H]2[C@@H](O)[C@H](F)CN21
OUT: group 1

Now look at this one.
IN: Kindly state the category for this molecule: OC[C@@H]1[C@@H](O)[C@H](O)[C@H]2C[C@@H](O)CN12
OUT: group 3

----------
- Test system: Escherichia coli
- experimental_details: Inhibition of Escherichia coli beta-glucuronidase using p-nitrophenyl glycoside as substrate at 1000 uM by spectrometric method relative to control
Reported inhibition values follow for various compounds
Write the answer as a number in %, unit excluded.

# count of solved cases: 5
IN: What measured inhibition goes with OC[C@@H]1[C@@H](O)[C@H](O)[C@H]2[C@@H](O)[C@H](F)CN21 ?
OUT: 2.9

IN: # iterate: OC[C@@H]1[C@@H](O)[C@H](O)[C@H]2[C@@H](O)C(F)(F)CN21
OUT: 2.6

IN: Moving on to the next compound: OC[C@@H]1[C@@H](O)[C@H](O)[C@H]2C[C@H](F)CN12
OUT: 0

IN: Same question for OC[C@@H]1[C@@H](O)[C@H](O)[C@H]2[C@H](O)[C@@H](F)CN21 please.
OUT: 7.5

IN: What about OC[C@@H]1[C@@H](O)[C@H](O)[C@H]2[C@H](O)C(F)(F)CN21 ?
OUT: 2.6

Further cases:
IN: What value of measured inhibition is listed for OC[C@@H]1[C@@H](O)[C@H](O)[C@H]2[C@H](O)[C@H](F)CN21 ?
OUT: 4.3

IN: Same thing, different compound: OC[C@@H]1[C@@H](O)[C@H](O)[C@H]2C[C@H](O)CN12
OUT: 4.3
